# targetOrTestSystem: MAF (Homo sapiens)
# Sequence (O75444 288-351 limits assumed): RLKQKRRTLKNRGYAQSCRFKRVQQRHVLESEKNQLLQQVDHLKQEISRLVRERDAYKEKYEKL
# runDescription: Direct-binding FRET assay
# Design: made in house
# settings: 37°C; N-terminal rhodamine design; mean or single
# Method: The direct binding assay was performed manually in 384-well plates and is similar to a previously described assay. Wells were filled with 20 μL of 1 mM TCEP-HCl. […] Briefly, the Kd of the designed peptide homodimer was experimentally determined and used with previously determined target homodimer Kd values to determine the heterodimer Kd. […] A minimum 15% change in the donor fluorescence upon titrating the acceptor peptide from 0 to 1000 nM was required for a fit to be attempted. […]
Where no end group is shown, it is not given here.
parameterMeasured: Kd

Task: Look up Kd for this sequence: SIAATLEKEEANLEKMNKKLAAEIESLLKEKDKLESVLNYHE [JUN-d1]
Output: > 1000 nM

====

pKd: recorded values
# targetOrTestSystem: BATF3 (Homo sapiens)
# Construct: made in house
# Sequence (Q9NR55 35-98 limits assumed): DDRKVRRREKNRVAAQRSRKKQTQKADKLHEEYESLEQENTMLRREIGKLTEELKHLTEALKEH
# runDescription: Direct-binding FRET assay
# settings: 37°C; N-terminal rhodamine design; mean or single; read-out: Kd
pKd: −log10 of the molar value. Where no end group is shown, it is not given here.

Reference set (2 entries):
• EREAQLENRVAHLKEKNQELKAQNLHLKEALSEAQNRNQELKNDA [XBP1-d1] = < 6.00
• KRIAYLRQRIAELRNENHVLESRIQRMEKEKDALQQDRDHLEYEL [ATF5-d1] = < 5.30

Now consider the entry below.
Task: Look up pKd for this sequence: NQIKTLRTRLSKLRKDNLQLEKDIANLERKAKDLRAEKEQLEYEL [ATF4-d1]
Output: < 6.00

====

# targetOrTestSystem: ATF5 (Homo sapiens)
# Construct: made in house
# Sequence (Q9Y2D1 208-271 limits assumed): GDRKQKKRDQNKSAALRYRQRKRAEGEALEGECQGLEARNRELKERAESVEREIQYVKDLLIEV
# runDescription: Direct-binding FRET assay
# settings: Kd, 23°C; C-terminal fluorescein design as donor, TAMRA target titrated
Where no end group is shown, it is not given here.
parameterMeasured: Kd

Task: Can you look up Kd on ATF5 (Homo sapiens) for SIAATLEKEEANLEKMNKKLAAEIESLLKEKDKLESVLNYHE [JUN-d1] ?
Output: > 1 µM

====

# targetOrTestSystem: CREBZF (Homo sapiens, UniProt Q9NS37)
# Construct: made in house
# runDescription: Direct-binding FRET assay
# settings: 4°C; C-terminal rhodamine design; mean or single; read-out: Kd
# Method: The direct binding assay was performed manually in 384-well plates and is similar to a previously described assay. Wells were filled with 20 μL of 1 mM TCEP-HCl. […] Briefly, the Kd of the designed peptide homodimer was experimentally determined and used with previously determined target homodimer Kd values to determine the heterodimer Kd. […] A minimum 15% change in the donor fluorescence upon titrating the acceptor peptide from 0 to 1000 nM was required for a fit to be attempted. […]
Where no end group is shown, it is not given here.
parameterMeasured: pKd
Scale: negative log10 of molar concentration, which is what pKd denotes.

Task: Look up pKd for this sequence: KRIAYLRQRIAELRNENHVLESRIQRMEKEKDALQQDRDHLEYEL [ATF5-d1]
Output: 6.39

====

# targetOrTestSystem: CREB3L3 (Homo sapiens, UniProt Q68CJ9)
# Construct: made in house
# Sequence (Q68CJ9 243-306 limits assumed): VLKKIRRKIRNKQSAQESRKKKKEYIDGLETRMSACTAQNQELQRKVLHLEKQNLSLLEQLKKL
# runDescription: Direct-binding FRET assay
# settings: 4°C; C-terminal rhodamine design; mean or single
pKd: −log10 of the molar value. Where no end group is shown, it is not given here.
parameterMeasured: pKd

Task: Can you look up pKd on CREB3L3 (Homo sapiens, UniProt Q68CJ9) for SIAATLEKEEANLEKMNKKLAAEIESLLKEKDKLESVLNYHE [JUN-d1] ?
Output: < 6.00

====

# targetOrTestSystem: CREB1 (Homo sapiens)
# Construct: made in house
# Sequence (P16220 269-327 limits assumed): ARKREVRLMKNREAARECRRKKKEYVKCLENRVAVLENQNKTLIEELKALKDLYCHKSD
# runDescription: Direct-binding FRET assay
Where no end group is shown, it is not given here.
parameterMeasured: Kd

Task: Look up Kd for this sequence: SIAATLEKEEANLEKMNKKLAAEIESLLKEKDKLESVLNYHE [JUN-d1]
Output: > 1000 nM

====

# targetOrTestSystem: CREB3L3 (Homo sapiens)
# Construct: made in house
# runDescription: Direct-binding FRET assay
# settings: 4°C; N-terminal rhodamine design; mean or single
Where no end group is shown, it is not given here.
parameterMeasured: Kd

Task: Look up Kd for this sequence: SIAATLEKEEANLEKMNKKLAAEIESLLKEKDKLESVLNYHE [JUN-d1]
Output: > 1000 nM

====

# targetOrTestSystem: NFE2L2 (Homo sapiens, UniProt Q16236)
# Construct: made in house
# Sequence (Q16236 497-560 limits assumed): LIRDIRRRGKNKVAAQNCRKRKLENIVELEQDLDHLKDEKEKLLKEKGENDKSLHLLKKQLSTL
# runDescription: Direct-binding FRET assay
# settings: 23°C; C-terminal rhodamine design; repeat 3; read-out: Kd
pKd: −log10 of the molar value. Where no end group is shown, it is not given here.
parameterMeasured: pKd

Task: Look up pKd for this sequence: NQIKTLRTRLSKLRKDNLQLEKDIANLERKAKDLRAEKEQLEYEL [ATF4-d1]
Output: < 5.30

====

# targetOrTestSystem: ATF4 (Homo sapiens)
# Construct: made in house
# Sequence (P18848 278-341 limits assumed): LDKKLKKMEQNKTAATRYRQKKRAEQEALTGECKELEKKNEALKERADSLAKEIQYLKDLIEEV
# runDescription: Direct-binding FRET assay
# settings: Kd, 37°C; N-terminal rhodamine design; mean or single
pKd: −log10 of the molar value. Where no end group is shown, it is not given here.
parameterMeasured: pKd

Task: Can you look up pKd on ATF4 (Homo sapiens) for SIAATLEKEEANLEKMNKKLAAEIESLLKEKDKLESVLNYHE [JUN-d1] ?
Output: < 6.00

====

# targetOrTestSystem: ATF4 (Homo sapiens)
# Construct: made in house
# runDescription: Direct-binding FRET assay
# settings: 37°C; C-terminal rhodamine design; mean or single; read-out: Kd
pKd: −log10 of the molar value. Where no end group is shown, it is not given here.
parameterMeasured: pKd

Task: Can you look up pKd on ATF4 (Homo sapiens) for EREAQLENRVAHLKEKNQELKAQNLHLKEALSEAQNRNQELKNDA [XBP1-d1] ?
Output: < 6.00

====

# targetOrTestSystem: BATF2 (Homo sapiens)
# Construct: made in house
# Sequence (Q8N1L9 17-80 limits assumed): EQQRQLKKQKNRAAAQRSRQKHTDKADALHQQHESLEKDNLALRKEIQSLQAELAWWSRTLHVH
# runDescription: Direct-binding FRET assay
# settings: Kd, 37°C; C-terminal fluorescein design as donor, TAMRA target titrated
Where no end group is shown, it is not given here.
parameterMeasured: Kd

Task: Look up Kd for this sequence: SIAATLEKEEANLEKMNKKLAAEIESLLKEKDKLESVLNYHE [JUN-d1]
Output: > 1 µM

====

# targetOrTestSystem: ATF5 (Homo sapiens)
# Construct: made in house
# runDescription: Direct-binding FRET assay
# settings: Kd, 37°C; C-terminal fluorescein design as donor, TAMRA target titrated
Where no end group is shown, it is not given here.
parameterMeasured: Kd

Task: Look up Kd for this sequence: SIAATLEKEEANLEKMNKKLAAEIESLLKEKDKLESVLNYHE [JUN-d1]
Output: > 1 µM

====

# targetOrTestSystem: MAFB (Homo sapiens)
# Sequence (Q9Y5Q3 238-301 limits assumed): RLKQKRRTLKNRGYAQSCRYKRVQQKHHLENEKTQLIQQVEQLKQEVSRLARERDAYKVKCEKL
# runDescription: Direct-binding FRET assay
# Set-up: made in house
# settings: 23°C; C-terminal fluorescein design as donor, TAMRA target titrated; read-out: Kd
pKd: −log10 of the molar value. Where no end group is shown, it is not given here.
parameterMeasured: pKd

Task: Look up pKd for this sequence: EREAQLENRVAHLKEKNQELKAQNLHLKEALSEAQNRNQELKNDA [XBP1-d1]
Output: < 6.00

====

# targetOrTestSystem: JUNB (Homo sapiens, UniProt P17275)
# Construct: made in house
# runDescription: Direct-binding FRET assay
# settings: Kd, 4°C; C-terminal rhodamine design; mean or single
Where no end group is shown, it is not given here.
parameterMeasured: Kd (nM)
Your answer is read as nM, so omit the unit and give the number.

Task: Look up Kd for this sequence: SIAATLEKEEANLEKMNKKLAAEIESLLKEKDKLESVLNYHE [JUN-d1]
Output: 1

====

# targetOrTestSystem: ATF6 (Homo sapiens)
# Sequence (P18850 306-369 limits assumed): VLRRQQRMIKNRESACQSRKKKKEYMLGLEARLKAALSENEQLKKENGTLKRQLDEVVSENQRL
# runDescription: Direct-binding FRET assay
# Design: made in house
# settings: 4°C; N-terminal rhodamine design; mean or single; read-out: Kd
# Procedure: The direct binding assay was performed manually in 384-well plates and is similar to a previously described assay. Wells were filled with 20 μL of 1 mM TCEP-HCl. […] Briefly, the Kd of the designed peptide homodimer was experimentally determined and used with previously determined target homodimer Kd values to determine the heterodimer Kd. […] A minimum 15% change in the donor fluorescence upon titrating the acceptor peptide from 0 to 1000 nM was required for a fit to be attempted. […]
pKd: −log10 of the molar value. Where no end group is shown, it is not given here.
parameterMeasured: pKd

- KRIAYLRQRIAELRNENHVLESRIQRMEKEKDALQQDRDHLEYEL [ATF5-d1]: < 5.30

Now consider the entry below.
Task: Look up pKd for this sequence: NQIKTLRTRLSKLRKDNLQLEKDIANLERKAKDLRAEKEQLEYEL [ATF4-d1]
Output: < 6.00

====

# targetOrTestSystem: ATF5 (Homo sapiens)
# Construct: made in house
# runDescription: Direct-binding FRET assay
# settings: 23°C; C-terminal rhodamine design; repeat 3; read-out: Kd
pKd: −log10 of the molar value. Where no end group is shown, it is not given here.
parameterMeasured: pKd

Task: Look up pKd for this sequence: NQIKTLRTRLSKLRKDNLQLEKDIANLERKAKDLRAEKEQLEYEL [ATF4-d1]
Output: < 5.30

The reported numbers originate from paper PMC4335062.
